B1: TRAF3IP2 (parent)
chain: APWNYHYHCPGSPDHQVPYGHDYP

Variants of: B1
method: protein stability index of a GFP-peptide fusion (GPS, HEK-293T) (PSI 1-6); higher = more stable;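 further: lentivirally expressed fusions sorted by FACS into six bins by GFP to DsRed ratio, PSI derived from sequencing read proportions per bin multiplied by bin number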
test.parameters: c terminus: a fixed tail appended
The entries below come with measured protein stability index values attached.

variant.string	protein stability index
P24D	3.88
Y19E	2.8
C9L	1.98
Y19R	1.99
Y19K	2.51
N4S	3.36
P18N	2.5
C9R	2.52
H21F	1.56
H6K	2.97
P2N	3.37
Q16T	2.31
D22G	2.41
Y23V	1.97
H8G	2.12
S12H	2.23
A1C	2.72
S12E	2.37
W3D	4.04
D14E	2.72
Y19Q	3.09
G11D	2.21
Y23Q	2.92
H6L	2.39
D22P	2.68
H21T	2.03
W3E	4.48
Y23H	1.88
P2A	2.66
P24C	2.02
P18Y	2.16
Y5P	3.84
Q16E	2.6
P13W	1.67
H6P	3.38
G20I	2.74
Y23S	2.85
Q16H	2.97
G11I	1.63
Y19N	2.48
P10H	1.96
G20V	2.13
C9T	1.69
P24S	2.21
W3F	2.22
G20R	2.45
G20E	2.48
D14F	2.75
Q16M	1.94
Y19A	2.47
G20F	1.52
P18M	2.56
Y19D	2.75
V17A	2.06
V17L	2.81
N4K	2.24
G11S	2.12
P10G	1.71
D22M	1.95
Y23D	3.83
G20S	2.28
G20M	1.93
Q16K	2.15
H15S	2.22
D22E	2.36
Y5F	2.19
H6Y	2.02
G20H	2.35
H8Q	2.82
Q16S	3.2
Y19V	2.7
Y7E	3.6
H8C	2.42
H15D	2.56
